experimental_system: Muscarinic acetylcholine receptor M1 (Homo sapiens); further: assay procedure not described here
Sequence (P11229 whole entry): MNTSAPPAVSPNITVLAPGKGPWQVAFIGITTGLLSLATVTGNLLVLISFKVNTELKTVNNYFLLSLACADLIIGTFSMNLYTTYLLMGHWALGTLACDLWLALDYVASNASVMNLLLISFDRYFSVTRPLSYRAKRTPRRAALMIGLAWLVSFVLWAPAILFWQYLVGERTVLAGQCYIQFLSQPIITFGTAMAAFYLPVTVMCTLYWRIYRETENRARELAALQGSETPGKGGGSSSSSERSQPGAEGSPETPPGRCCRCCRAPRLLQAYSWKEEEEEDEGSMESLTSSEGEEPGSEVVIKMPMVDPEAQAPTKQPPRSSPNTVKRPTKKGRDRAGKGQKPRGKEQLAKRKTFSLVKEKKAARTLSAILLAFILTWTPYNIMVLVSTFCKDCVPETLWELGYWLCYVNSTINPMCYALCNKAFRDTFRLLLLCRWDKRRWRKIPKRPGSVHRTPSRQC
Format: functional, cell-based
property_name: AC50

Example entries begin here.
C=C1c2c(Cl)ccc(O)c2C(=O)C2=C(O)[C@]3(O)C(=O)C(C(N)=O)=C(O)[C@@H](N(C)C)[C@@H]3[C@@H](O)[C@H]12 [MECLOCYCLINE] : > 30 µM
CO[C@H]1/C=C/O[C@@]2(C)Oc3c(C)c(O)c4c(O)c(cc(O)c4c3C2=O)NC(=O)/C(C)=C\C=C\[C@H](C)[C@H](O)[C@@H](C)[C@@H](O)[C@@H](C)[C@H](OC(C)=O)[C@@H]1C [RIFAMYCIN] : 11.6 µM
CC(=O)Oc1ccccc1C(=O)Nc1ncc([N+](=O)[O-])s1 [NITAZOXANIDE] : > 30 µM

Qu. Value lookup for AC50; key = COc1cc([C@@H]2c3cc4c(cc3[C@@H](O[C@@H]3O[C@@H]5CO[C@@H](c6cccs6)O[C@H]5[C@H](O)[C@H]3O)[C@H]3COC(=O)[C@H]23)OCO4)cc(OC)c1O [TENIPOSIDE]
Ans. > 30 µM

Qu. Value lookup for AC50; key = CCOc1ccc2ccccc2c1C(=O)N[C@@H]1C(=O)N2[C@@H]1SC(C)(C)[C@@H]2C(=O)O [NAFCILLIN]
Ans. > 30 µM

Qu. Value lookup for AC50; key = C[C@@H](O)[C@H]1C(=O)N2C(C(=O)O)=C([C@H]3CCCO3)S[C@H]12 [FAROPENEM]
Ans. > 30 µM

----------
experimental_system: UniProt P35462
Sequence (P35462 whole entry): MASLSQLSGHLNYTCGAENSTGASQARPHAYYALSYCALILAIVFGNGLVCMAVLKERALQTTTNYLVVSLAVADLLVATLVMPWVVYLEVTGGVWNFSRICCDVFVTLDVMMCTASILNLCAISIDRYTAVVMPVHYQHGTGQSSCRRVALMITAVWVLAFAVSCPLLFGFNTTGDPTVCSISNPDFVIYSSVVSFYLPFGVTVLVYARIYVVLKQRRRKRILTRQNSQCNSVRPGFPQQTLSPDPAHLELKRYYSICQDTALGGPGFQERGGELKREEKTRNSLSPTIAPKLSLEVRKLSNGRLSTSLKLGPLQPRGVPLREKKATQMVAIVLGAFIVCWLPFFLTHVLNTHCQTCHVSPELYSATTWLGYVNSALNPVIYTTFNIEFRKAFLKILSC
Listing: AC50 of selected compounds

CCCCCCCCCCCCCCCC(=O)OC/C=C(C)/C=C/C=C(C)/C=C/C1=C(C)CCCC1(C)C [VITAMIN A PALMITATE] : > 30 µM
CC1(C)S[C@@H]2[C@H](NC(=O)[C@H](NC(=O)N3CCN(S(C)(=O)=O)C3=O)c3ccccc3)C(=O)N2[C@H]1C(=O)O : > 30 µM

// moving on: another record for AC50
Qu. Identify the measured AC50 of CN(C)CCN(Cc1ccc(Cl)cc1)c1ccccn1 for UniProt P35462.
Ans. 1.35 µM

----------
experimental_system: D(1A) dopamine receptor (Homo sapiens); further: assay procedure not described here
Sequence (P21728 whole entry): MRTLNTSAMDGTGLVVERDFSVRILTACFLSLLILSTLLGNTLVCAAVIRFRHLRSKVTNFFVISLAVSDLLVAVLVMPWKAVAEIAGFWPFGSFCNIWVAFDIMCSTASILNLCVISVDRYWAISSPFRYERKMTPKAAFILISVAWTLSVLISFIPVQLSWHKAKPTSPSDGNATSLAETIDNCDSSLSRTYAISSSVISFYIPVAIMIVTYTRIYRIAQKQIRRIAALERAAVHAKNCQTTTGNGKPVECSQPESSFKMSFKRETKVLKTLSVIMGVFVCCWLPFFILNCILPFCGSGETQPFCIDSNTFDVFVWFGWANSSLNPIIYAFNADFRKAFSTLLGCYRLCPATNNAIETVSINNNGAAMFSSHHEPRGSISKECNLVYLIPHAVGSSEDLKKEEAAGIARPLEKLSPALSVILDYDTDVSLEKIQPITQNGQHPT
Assay type: functional, cell-based
property_name: AC50

Qu. Identify the measured AC50 of CC(=O)Nc1c(I)c(C(=O)N[C@H]2C(O)O[C@H](CO)[C@@H](O)[C@@H]2O)c(I)c(N(C)C(C)=O)c1I (stereo partly drawn) [METRIZAMIDE] for D(1A) dopamine receptor (Homo sapiens).
Ans. > 10 µM

----------
experimental_system: UniProt:P21728
Format: functional, cell-based
property_name: AC50

Example entries begin here.
CC(=O)OCC[N+](C)(C)C : > 10 µM
Cc1cccc(N(C)C(=S)Oc2ccc3ccccc3c2)c1 [TOLNAFTATE] : > 30 µM
Cc1ccc2c(-c3ccccc3)nc(=O)n(C(C)C)c2c1 : > 30 µM
NC(=O)c1ncn([C@@H]2O[C@H](CO)[C@@H](O)[C@H]2O)n1 : > 10 µM
OCCN1CCN(CC/C=C2/c3ccccc3Sc3ccc(Cl)cc32)CC1 : > 10 µM
COc1ccc(C(CN(C)C)C2(O)CCCCC2)cc1 (configuration not stated) : > 30 µM
CC(=O)/N=c1/sc(S(N)(=O)=O)nn1C [METHAZOLAMIDE] : > 10 µM
CC(=O)c1ccc2c(c1)N(CCCN1CCC(CCO)CC1)c1ccccc1S2 : > 30 µM

Qu. Value lookup for AC50; key = CO/N=C(\C(=O)N[C@@H]1C(=O)N2C(C(=O)O)=C(COC(N)=O)CS[C@H]12)c1ccco1
Ans. > 30 µM

Qu. Value lookup for AC50; key = C#C[C@]1(O)CC[C@H]2[C@@H]3CCc4cc(OC)ccc4[C@H]3CC[C@@]21C
Ans. > 10 µM

Qu. Value lookup for AC50; key = COCCCOc1ccnc(C[S+]([O-])c2nc3ccccc3[nH]2)c1C (configuration not stated)
Ans. > 10 µM
